All values here come from patent US20260297080A1.

Target: CDK1/Cyclin B1 (Homo sapiens)
Sequence (P06493 whole entry): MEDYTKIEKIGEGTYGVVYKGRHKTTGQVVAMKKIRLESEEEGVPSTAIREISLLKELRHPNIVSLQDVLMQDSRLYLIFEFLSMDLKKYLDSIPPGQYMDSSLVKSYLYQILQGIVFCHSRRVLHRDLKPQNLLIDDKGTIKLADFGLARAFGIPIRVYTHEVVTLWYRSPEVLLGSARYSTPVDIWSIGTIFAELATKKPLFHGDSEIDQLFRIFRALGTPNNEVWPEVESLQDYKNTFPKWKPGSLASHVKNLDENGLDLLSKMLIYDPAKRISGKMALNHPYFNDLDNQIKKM
Sequence (P14635 whole entry partner): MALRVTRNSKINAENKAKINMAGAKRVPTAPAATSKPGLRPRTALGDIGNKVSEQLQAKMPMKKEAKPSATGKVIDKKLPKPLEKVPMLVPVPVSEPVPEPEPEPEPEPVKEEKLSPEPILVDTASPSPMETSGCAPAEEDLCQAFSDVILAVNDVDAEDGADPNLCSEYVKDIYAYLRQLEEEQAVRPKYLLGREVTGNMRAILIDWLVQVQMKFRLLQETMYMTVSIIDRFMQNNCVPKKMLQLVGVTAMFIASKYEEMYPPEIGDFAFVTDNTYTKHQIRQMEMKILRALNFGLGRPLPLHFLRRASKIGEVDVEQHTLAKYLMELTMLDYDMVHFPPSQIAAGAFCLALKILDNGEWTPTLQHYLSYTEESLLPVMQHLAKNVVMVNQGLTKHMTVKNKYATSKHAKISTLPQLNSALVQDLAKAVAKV
Assay: CDK1/Cyclin B1 Biochemical Assay (TR-FRET), 0.015 mM ATP
Settings: 0.15 μM Rb (Ser780)-biotin substrate, pH7.0, 60 min preincubation, 120 min reaction, room temperature
Description: CDK2/Cyclin E1 and CDK1/Cyclin B1 Biochemical Assays Compounds disclosed herein were tested for inhibition of CDK2/Cyclin E1 or CDK1/Cyclin B1 kinase in an assay based on the time-resolved fluorescence-resonance energy transfer (TR-FRET) methodology. […] Plates were incubated at room temperature for 60 minutes, and the TR-FRET signals (ex337 nm, em665 nm/620 nm) were recorded on a PHERAstar FSX plate reader (BMG Labtech). […]
measure.name: IC50 (nM)

compound: [2H]C([2H])([2H])N1c2c(F)cc(Nc3cc([C@@H]4CC[C@H](OC(=O)NC(C)C)C4)[nH]n3)cc2CS1(=O)=O (single isomer, unassigned) [Example 289a]
measure.name: IC50
value.reported: 196
--
compound: CC(C)NC(=O)O[C@H]1CC[C@@H](c2cc(Nc3ccc4c(c3)CS(=O)(=O)N4CC3CN(C)C3)n[nH]2)C1 (relative stereo)
measure.name: IC50
value.reported: 30
--
compound: O=C(NC1CCC(O)CC1)O[C@H]1CC[C@@H](c2cc(Nc3ccc4c(c3F)CNS4(=O)=O)n[nH]2)C1 (single isomer, unassigned) [Example 142]
measure.name: IC50
value.reported: 46
--
compound: O=C(NC1CC2(CCC2)C1)O[C@H]1CC[C@@H](c2cc(Nc3ccc4c(c3F)CNS4(=O)=O)n[nH]2)C1 (relative stereo)
measure.name: IC50
value.reported: 668

[1] CC1(NC(=O)O[C@H]2CC[C@@H](c3cc(Nc4ccc5c(c4F)CNS5(=O)=O)n[nH]3)C2)CCOC1 (single isomer, unassigned) [Example 162b]
[2] CC(C)NC(=O)O[C@H]1CC[C@@H](c2cc(Nc3ccc4c(c3F)CN(CCN(C)C)S4(=O)=O)n[nH]2)C1 (relative stereo)
Q: Which record shows the lower IC50: the first, 1 , or the second, 2 ? Selection: enter the item's label.
Ans: 1
(1: 186 nM, 2: 962 nM)
